- assay-name: Human tumor cell line growth assay (SRB)
- Format: cell-based
- measurement-conditions: human, SNB-19 cells (CNS), SNB-19, 48 h, read-out: LC50
quantity: CC50 at 48 h

Past entries and their recorded results:
>  <compound>
Cc1cc2nc3c4cc([N+](=O)[O-])ccc4n(CCN(C)C)c3nc2cc1C [JBA-185]

>  <quantity>
CC50 at 48 h

>  <result>
> 100 µM

$$$$
>  <compound>
Cc1cc2nc3c4cc(N)ccc4n(CCN(C)C)c3nc2cc1C [JBD-136]

>  <quantity>
CC50 at 48 h

>  <result>
> 100 µM

$$$$

Here is the next item to consider.
Query: Value lookup for CC50 at 48 h; key = Cc1cc2nc3c4cc(O)ccc4n(CCN(C)C)c3nc2cc1C [JBD-139]
Response: > 100 µM

Ref: patent US20230312578A1
